# testedSystem: hCA XII (Homo sapiens, UniProt O43570)
# Construct: gene CA12; recombinant, made in-house
# Sequence (O43570 25-354 limits assumed): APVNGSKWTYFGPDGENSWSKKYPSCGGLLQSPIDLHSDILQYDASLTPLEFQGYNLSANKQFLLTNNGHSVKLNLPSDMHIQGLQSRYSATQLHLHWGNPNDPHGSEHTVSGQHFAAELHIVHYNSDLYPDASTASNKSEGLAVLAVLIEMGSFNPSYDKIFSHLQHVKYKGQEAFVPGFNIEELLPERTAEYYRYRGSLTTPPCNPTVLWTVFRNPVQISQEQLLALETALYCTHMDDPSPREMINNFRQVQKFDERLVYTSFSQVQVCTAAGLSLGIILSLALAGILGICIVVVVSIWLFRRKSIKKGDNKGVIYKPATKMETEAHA
# assayExplanation: stopped-flow CO2 hydrase assay
# Assay type: biochemical
recordedEndpoint: Ki

Consider the worked cases shown below.
Nc1ccccc1S(=O)(=O)N1CCN(C(=O)c2cc(S(N)(=O)=O)c(Cl)cc2Cl)CC1 [compound 14] = 9.6 nM
COc1ccc(S(=O)(=O)N2CCN(C(=O)c3cc(S(N)(=O)=O)c(Cl)cc3Cl)CC2)cc1 [compound 6] = 11.6 nM

Now look at this one.
Summary line: Nc1ccc(S(=O)(=O)N2CCN(C(=O)c3cc(S(N)(=O)=O)c(Cl)cc3Cl)CC2)cc1 [compound 9] , hCA XII (Homo sapiens, UniProt O43570), reported Ki = 6.9 nM

====

# testedSystem: hCA XII (Homo sapiens, UniProt O43570)
# Construct: gene CA12; recombinant, made in-house
# assayExplanation: stopped-flow CO2 hydrase assay
# Type: biochemical
Ki: recorded values
Remember to follow the number with its unit.

NS(=O)(=O)c1cc(C(=O)N2CCN(S(=O)(=O)Cc3ccccc3)CC2)c(Cl)cc1Cl = 0.87 nM
CC(C)(C)OC(=O)N1CCN(C(=O)c2cc(S(N)(=O)=O)c(Cl)cc2Cl)CC1 = 50.1 nM
NS(=O)(=O)c1cc(C(=O)N2CCN(S(=O)(=O)c3ccccc3[N+](=O)[O-])CC2)c(Cl)cc1Cl = 7.2 nM

Documented Ki of NS(=O)(=O)c1cc(C(=O)N2CCN(S(=O)(=O)c3ccc(Cl)c(Cl)c3)CC2)c(Cl)cc1Cl : 9.1 nM

====

pKi: recorded values
# testedSystem: hCA II (Homo sapiens, UniProt P00918)
# Construct: gene CA2; purchased from Merck; cytosolic isoform; construct not described
# assayExplanation: stopped-flow CO2 hydrase assay
# Assay type: biochemical
Value format note: pKi is -log10 of concentration (mol/L); just state the number.

Consider the worked cases shown below.
COc1ccc(S(=O)(=O)N2CCN(C(=O)c3cc(S(N)(=O)=O)c(Cl)cc3Cl)CC2)cc1 = 8.55
NS(=O)(=O)c1cc(C(=O)N2CCN(S(=O)(=O)Cc3ccccc3)CC2)c(Cl)cc1Cl = 10.15

Now look at this one.
Documented pKi of Nc1cccc(S(=O)(=O)N2CCN(C(=O)c3cc(S(N)(=O)=O)c(Cl)cc3Cl)CC2)c1 : 9.10

====

# testedSystem: hCA I (Homo sapiens)
# Construct: gene CA1; purchased from Merck; cytosolic isoform; construct not described
# Sequence (P00915 2-261): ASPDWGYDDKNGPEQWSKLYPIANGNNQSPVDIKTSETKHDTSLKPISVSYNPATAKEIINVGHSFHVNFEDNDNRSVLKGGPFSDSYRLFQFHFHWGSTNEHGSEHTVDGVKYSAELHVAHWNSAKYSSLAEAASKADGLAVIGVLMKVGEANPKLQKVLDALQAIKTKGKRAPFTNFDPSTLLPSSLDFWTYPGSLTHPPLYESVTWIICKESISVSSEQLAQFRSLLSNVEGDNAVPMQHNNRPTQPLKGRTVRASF
# assayExplanation: stopped-flow CO2 hydrase assay
# Format: biochemical
# testSettings: CO2 substrate; […] HEPES pH […] Na2SO4; […] min preincubation at room temperature
recordedEndpoint: Ki (nM)
Please give a number only; it is taken to be in nM.

Documented Ki of NS(=O)(=O)c1cc(C(=O)O)c(Cl)cc1Cl : 0.52

====

# testedSystem: hCA II (Homo sapiens, UniProt P00918)
# Construct: gene CA2; purchased from Merck; cytosolic isoform; construct not described
# assayExplanation: stopped-flow CO2 hydrase assay
# Type: biochemical
# testSettings: CO2 substrate; […] HEPES pH […] Na2SO4; […] min preincubation at room temperature
recordedEndpoint: Ki (nM)
Please give a number only; it is taken to be in nM.

Documented Ki of NS(=O)(=O)c1cc(C(=O)O)c(Cl)cc1Cl [compound 1, 2,4‐dichloro‐5‐sulfamoylbenzoic acid] : 0.33

// provenance: paper PMC11648825
